Hello, the source for this data is patent US20250289893A1, in case you need it.

# Target system: Chinese variant CD1a protein (human) (UniProt P06126)
# Sequence (P06126 18-295, change not shown): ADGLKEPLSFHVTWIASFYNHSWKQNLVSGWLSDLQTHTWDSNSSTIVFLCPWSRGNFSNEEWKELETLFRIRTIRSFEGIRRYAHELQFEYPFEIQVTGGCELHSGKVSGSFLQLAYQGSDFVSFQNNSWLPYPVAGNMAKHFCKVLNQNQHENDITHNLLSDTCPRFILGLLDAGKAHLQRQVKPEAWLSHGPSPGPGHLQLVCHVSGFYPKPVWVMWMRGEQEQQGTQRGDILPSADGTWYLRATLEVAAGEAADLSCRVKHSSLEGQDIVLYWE
# Measurement notes: ELISA, 1 µg/ml antibody
Measure: Optical Density (OD)
Lab book: enter the figure in OD, no units written.

Q. Report Optical Density (OD) for 16 (VR11834) (antibody, V domains shown, also called OX16; antibody 16) VH: EVQLVESGGGLVKPGGSLKLSCAASGFTFSNYAMSWVRQTPEKRLEWVAAINSNGGSAYYPDTVKDRFTISRDNAKNTLYLQMSSLRSEDTALYYCARRFYYDYGWFAYWGQGTLVTVSS VL: DIVLTQSPASLSASVGETVTITCRASENIDSYLAWYQQKQGKSPQLLVYAATLLADGVPSRFSGSGSGTQYSLKINSLQSEDVARYYCQHYYSSPWTFGGGTKLEIK please.
A. 1.35
